- Tested on: HAP1 MTAP-intact
- Assay protocol: SDMA in-cell western assay, HAP1 MTAP-intact cell line
- Format: cell-based
- Assay setup: Homo sapiens
IC50: recorded values

INSERT INTO assay_data (compound_smiles, observed_result) VALUES
  ('Cc1ncoc1COc1ccc2c(c1C)CCN(C[C@@H](O)CNC(=O)c1cc(NC3COC3)nc(N3CCN(C(=O)C4CC4)CC3)n1)C2', '≥ 10 µM'),
  ('Cc1c(OCc2ccnn2C)ccc2c1CCN(C[C@@H](O)CNC(=O)c1ccnc(NC3CCCCC3)c1)C2', '≥ 10 µM'),
  ('CC(=O)N1CC(Nc2cc(C(=O)NC[C@H](O)CN3CCc4cc(OCc5cnco5)ccc4C3)ccn2)C1', '≥ 10 µM'),
  ('Cc1ncoc1COc1ccc2c(c1)CCN(C[C@@H](O)CNC(=O)c1cc(NC3CCC3)nc(N3CCN(C(C)C)CC3)c1)C2', '≥ 10 µM'),
  ('CC(C)CC(=O)N1CC(Nc2cc(C(=O)NC[C@H](O)CN3CCc4cc(OCc5cnco5)ccc4C3)ccn2)C1', '1 to 10 µM'),
  ('Cc1ncoc1COc1ccc2c(c1)CCN(C[C@@H](O)CNC(=O)c1cc(NC3CCCC3)ncn1)C2', '< 1 µM');

Measured IC50, CCN1CCN(c2cc(C(=O)NC[C@H](O)CN3CCc4cc(OCc5cnco5)ccc4C3)cc(NC3CCC3)n2)CC1 : 1 to 10 µM

Measured IC50, CC(=O)N1CC(Nc2cc(C(=O)NC[C@H](O)CN3CCc4cc(OCc5cnco5)ccc4C3)nc(N3CCCCC3)n2)C1 : 1 to 10 µM

----------
- Measured target: PRMT5 (Homo sapiens, UniProt O14744)
- Construct: purchased Viva (custom protein)
- Sequence (O14744 whole entry): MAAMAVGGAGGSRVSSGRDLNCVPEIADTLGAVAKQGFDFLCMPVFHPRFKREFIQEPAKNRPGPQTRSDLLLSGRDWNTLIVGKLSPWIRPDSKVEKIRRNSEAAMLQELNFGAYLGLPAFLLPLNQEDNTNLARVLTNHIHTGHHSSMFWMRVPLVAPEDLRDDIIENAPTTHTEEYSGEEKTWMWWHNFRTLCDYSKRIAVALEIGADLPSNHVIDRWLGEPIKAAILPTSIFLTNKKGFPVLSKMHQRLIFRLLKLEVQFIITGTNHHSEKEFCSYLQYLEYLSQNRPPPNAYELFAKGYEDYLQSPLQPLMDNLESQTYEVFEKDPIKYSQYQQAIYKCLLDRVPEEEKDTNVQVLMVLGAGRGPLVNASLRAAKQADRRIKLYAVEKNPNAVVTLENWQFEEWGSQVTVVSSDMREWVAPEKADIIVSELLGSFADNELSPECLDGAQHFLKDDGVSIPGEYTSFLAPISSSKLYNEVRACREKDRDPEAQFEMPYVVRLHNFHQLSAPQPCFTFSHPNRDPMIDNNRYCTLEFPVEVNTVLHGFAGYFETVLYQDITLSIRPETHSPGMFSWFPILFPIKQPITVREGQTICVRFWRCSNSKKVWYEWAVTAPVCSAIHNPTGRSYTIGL
- Sequence (Q9BQA1 whole entry partner): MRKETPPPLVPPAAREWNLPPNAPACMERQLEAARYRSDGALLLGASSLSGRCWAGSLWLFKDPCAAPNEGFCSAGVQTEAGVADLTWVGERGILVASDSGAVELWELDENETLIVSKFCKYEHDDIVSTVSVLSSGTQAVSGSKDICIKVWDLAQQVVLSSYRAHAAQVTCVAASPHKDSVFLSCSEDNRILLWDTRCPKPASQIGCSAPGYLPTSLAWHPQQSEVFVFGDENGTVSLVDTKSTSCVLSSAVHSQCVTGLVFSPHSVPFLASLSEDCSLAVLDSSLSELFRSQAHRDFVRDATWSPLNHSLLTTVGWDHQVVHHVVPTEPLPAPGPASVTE
- Assay protocol: PRMT5 IC50 assay in the presence of SAM as cofactor
- Format: biochemical
pIC50: −log10 of the molar value.
pIC50: recorded values

INSERT INTO measurements (compound, endpoint_label, observed_result) VALUES
  ('Cc1ncoc1COc1cc(F)c2c(c1C)CCN(C[C@@H](O)CNC(=O)c1ccnc(NC3CCC3)c1)C2', 'pIC50', '6.30 to 7.30'),
  ('Cc1ncoc1COc1ccc2c(c1Cl)CCN(C[C@@H](O)CNC(=O)c1cccc(NC3COC3)c1)C2', 'pIC50', '5.30 to 6.30'),
  ('CC(=O)N1CCC(Nc2cc(C(=O)NC[C@H](O)CN3CCc4cc(OCc5ocnc5C)ccc4C3)nc(N3CCCCC3)n2)CC1', 'pIC50', '6.30 to 7.30'),
  ('Cc1c(OCc2cnco2)ccc2c1CCN(C[C@@H](O)CNC(=O)c1ccnc(NC3CCCC3)c1)C2', 'pIC50', '6.30 to 7.30'),
  ('CCCN(C)c1nc(NC2COC2)cc(C(=O)NC[C@H](O)CN2CCc3cc(OCc4cnco4)ccc3C2)n1', 'pIC50', '6.30 to 7.30');

Measured pIC50, O=C(NC[C@H](O)CN1CCc2c(ccc(OCc3cnco3)c2Br)C1)c1cc(NC2CCCC2)ncn1 : 5.30 to 6.30

Measured pIC50, CC(=O)N1CCC(Nc2cc(C(=O)NC[C@H](O)CN3CCc4cc(OCc5ccnn5C)ccc4C3)ncn2)CC1 : 5.30 to 6.30

Measured pIC50, CN(C)CCOc1cc(C(=O)NC[C@H](O)CN2CCc3c(ccc(OCc4cnco4)c3Cl)C2)cc(NC2CCC2)n1 : 6.30 to 7.30

Measured pIC50, CC(=O)N1CCC(Nc2cccc(C(=O)NC[C@H](O)CN3CCc4c(ccc(OCc5cnco5)c4C)C3)c2)CC1 : 6.30 to 7.30

Measured pIC50, CC(=O)N1CCC(Nc2cc(C(=O)NC[C@H](O)CN3CCc4cc(OCc5cnnn5C)ccc4C3)ncn2)CC1 : 5.30 to 6.30

Measured pIC50, O=C(NC[C@H](O)CN1CCc2c(ccc(OCc3cnco3)c2Cl)C1)c1ccnc(NC2CCCCC2)c1 : 6.30 to 7.30

Measured pIC50, Cc1ncoc1COc1ccc2c(c1)CCN(C[C@@H](O)CNC(=O)c1cc(NC3CCC3)nc(N3CCN(C)CC3)c1)C2 : 6.30 to 7.30

Measured pIC50, O=C(NC[C@H](O)CN1CCc2cc(OCc3cnco3)c(F)c(F)c2C1)c1ccnc(NC2CCC2)c1 : 6.30 to 7.30

Measured pIC50, CO[C@H]1CC[C@H](Nc2cc(C(=O)NC[C@H](O)CN3CCc4c(ccc(OCc5cnco5)c4C)C3)ncn2)CC1 : 5.30 to 6.30

Measured pIC50, CC(=O)N1CCC(Nc2cccc(C(=O)NC[C@H](O)CN3CCc4c(ccc(OCc5cnco5)c4C)C3)c2)C1 (stereo partly drawn) : 5.30 to 6.30

Measured pIC50, Cc1c(OCc2cnco2)ccc2c1CCN(C[C@@H](O)CNC(=O)c1cc(NC3CCOCC3)ccn1)C2 : 5.30 to 6.30

Measured pIC50, Cc1c(OCc2ccnn2C)ccc2c1CCN(C[C@@H](O)CNC(=O)c1cc(NC3CCC3)ccn1)C2 : 5.30 to 6.30

Measured pIC50, Cc1c(OCc2cnco2)ccc2c1CCN(C[C@@H](O)CNC(=O)c1ccnc(NC3CN(C(=O)C4CC4)C3)c1)C2 : 6.30 to 7.30

Measured pIC50, CCN(C)c1cc(C(=O)NC[C@H](O)CN2CCc3cc(OCc4cnco4)ccc3C2)cc(NC2CCC2)n1 : 5.30 to 6.30

Measured pIC50, Cc1ncoc1COc1ccc2c(c1C)CCN(C[C@@H](O)CNC(=O)c1ccnc(NC3CCCC3)c1)C2 : 6.30 to 7.30

Measured pIC50, O=C(NC[C@H](O)CN1CCc2c(ccc(OCc3cnco3)c2Cl)C1)c1ccnc(NC2CCN(C(=O)C3CC3)CC2)c1 : 6.30 to 7.30
